B1: library; numbered along this chain (parent)
chain: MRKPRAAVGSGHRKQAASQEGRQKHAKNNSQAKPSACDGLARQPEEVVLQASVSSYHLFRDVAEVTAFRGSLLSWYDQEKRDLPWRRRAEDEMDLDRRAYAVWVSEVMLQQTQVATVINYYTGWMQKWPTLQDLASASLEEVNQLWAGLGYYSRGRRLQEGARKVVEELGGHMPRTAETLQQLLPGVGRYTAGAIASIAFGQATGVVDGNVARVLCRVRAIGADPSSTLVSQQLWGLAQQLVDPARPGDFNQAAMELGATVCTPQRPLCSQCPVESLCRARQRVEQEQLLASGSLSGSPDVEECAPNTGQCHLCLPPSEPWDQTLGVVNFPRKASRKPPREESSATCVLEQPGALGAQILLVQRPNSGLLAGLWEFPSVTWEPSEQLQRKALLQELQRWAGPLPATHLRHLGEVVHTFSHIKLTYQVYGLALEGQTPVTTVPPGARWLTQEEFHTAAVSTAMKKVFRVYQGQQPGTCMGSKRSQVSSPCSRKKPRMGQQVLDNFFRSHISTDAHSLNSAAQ

variants of: B1; assay: 8OG:A repair function score (normalized; synonymous = 0, nonsense = -1) (normalized log-likelihood score); higher = more repair activity (WT-like); details: with 8OG:A DNA repair reporter (GFP) in HEK-293 MUTYH KO cells;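 further: cells sorted at 72 h after reporter transfection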
experimental readout: 8OG:A repair function score
Numbers only.

mutation_string=W399T experimental_readout="8OG:A repair function score" recorded_result=-0.296
mutation_string=E140N experimental_readout="8OG:A repair function score" recorded_result=-0.0981
mutation_string=K80N experimental_readout="8OG:A repair function score" recorded_result=-0.162
mutation_string=V485R experimental_readout="8OG:A repair function score" recorded_result=0.0173
mutation_string=S518A experimental_readout="8OG:A repair function score" recorded_result=0.00286

Quick one: give me 8OG:A repair function score for each item below, same order please.
1. K164D
2. I421T
3. G401F

Reply:
1. -0.483
2. -0.299
3. -0.16

// input: 3 variants below; output: 8OG:A repair function score for each
1. G70S
2. S515C
3. E90R

Reply:
[-0.0056, -0.0274, 0.0046]

Hey, can you go through the list below and give me 8OG:A repair function score for every item?
1. S483A
2. V261I
3. T191K
4. Q43P
5. A147W
6. V230I
7. P377G
8. E350P

Reply:
1. 0.00092
2. -0.0723
3. -1.26
4. 0.054
5. -0.902
6. -0.264
7. -1.26
8. -1.12

# map each variant to its 8OG:A repair function score
1. V104L
2. G123A
3. C278N
4. R154C
5. T440W
6. Q240R
7. S459R

Reply:
1: -0.583; 2: 0.0469; 3: -1.1; 4: -1.08; 5: -0.105; 6: -0.97; 7: -1.13

Hey, just so you know, these numbers are from the supplement of paper PMC11908140.
